# ASSAY_TARGET: hNTS2 receptor (Homo sapiens, UniProt O95665)
# Construct: membranes prepared from them
# Sequence (O95665 whole entry): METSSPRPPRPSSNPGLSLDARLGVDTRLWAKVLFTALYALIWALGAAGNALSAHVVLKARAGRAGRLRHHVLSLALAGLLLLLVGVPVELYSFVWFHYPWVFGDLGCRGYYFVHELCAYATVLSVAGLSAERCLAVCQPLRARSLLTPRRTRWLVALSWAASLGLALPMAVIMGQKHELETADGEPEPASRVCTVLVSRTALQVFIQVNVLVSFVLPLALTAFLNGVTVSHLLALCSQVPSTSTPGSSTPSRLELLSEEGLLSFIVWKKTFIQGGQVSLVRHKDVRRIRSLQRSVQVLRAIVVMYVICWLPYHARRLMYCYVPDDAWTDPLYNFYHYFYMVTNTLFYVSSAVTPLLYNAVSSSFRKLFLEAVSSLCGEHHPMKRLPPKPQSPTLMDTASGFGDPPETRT
# METHOD_DESCRIPTION: Competitive radioligand binding assay on the hNTS2 receptor
# SETTINGS: displacement of 125I-[Tyr3]-NT, membranes of 1321N1 cells expressing hNTS2; read-out: IC50 NTS2 (converted)
Where a SMILES comes first, the peptide text is derived from it. Bridges are numbered along the chain shown (N, C = ends). [ ]: non-standard residue; d: D form. AllylGly = C=CC[C@H](N)C(=O)O; Tle = CC(C)(C)[C@H](N)C(=O)O; Dap = NC[C@H](N)C(=O)O
MEASURED_PROPERTY: IC50 (µM)
Please respond with the number in µM and leave the unit unwritten.

What value of IC50 has been reported for the following compound? CC(C)C[C@H](NC(=O)[C@H](Cc1ccc(O)cc1)NC(=O)[C@@H]1CCC(=O)NC[C@H](N)C(=O)N[C@@H](CCCCN)C(=O)N[C@@H](CCCCN)C(=O)N1)C(=O)O [compound 98, c[DapKKE]YL] (H-[Dap]KKEYL-OH; lactam 1-4)
8.18

What value of IC50 has been reported for the following compound? COc1ccc(C[C@H](NC(=O)[C@@H]2CC=CC[C@H](N)C(=O)N[C@@H](CCCCN)C(=O)N[C@@H](CCCCN)C(=O)N2)C(=O)N[C@@H](CC(C)C)C(=O)O)cc1 [compound 75, c[G(All)KKG(All)]Y(OMe)L] (H-[AllylGly]KK[AllylGly]Y(Me)L-OH; staple 1-4)
0.0863

What value of IC50 has been reported for the following compound? CC(C)(C)[C@H](NC(=O)[C@H](Cc1ccc(O)cc1)NC(=O)[C@@H]1CC=CC[C@H](N)C(=O)N[C@@H](CCCCN)C(=O)N[C@@H](CCCCN)C(=O)N1)C(=O)O [compound 27, c[G(All)KKG(All)]YTle] (H-[AllylGly]KK[AllylGly]Y[Tle]-OH; staple 1-4)
77.8

What value of IC50 has been reported for the following compound? CC(C)C[C@H](NC(=O)[C@H](Cc1ccc(O)cc1)NC(=O)[C@@H]1CC=CC[C@H](N)C(=O)N[C@@H](CCCCN)C(=O)NCC(=O)N1)C(=O)O [compound 59, c[G(All)KGG(All)]YL] (H-[AllylGly]KG[AllylGly]YL-OH; staple 1-4)
2.13
